experiment: gradient 5% acetonitrile 3 min, to 50% in 2 min, to 85% in 15 min, held 3 min, 100 µL/min; conditions: column: Zorbax Extend-C18 2.1 x 50 mm; eluents: water / acetonitrile, 0.1% formic acid
measure: RP-LC retention time (s)

compound | resultUnits | measured
Cc1ccccc1Cn1c(CN2CCC(C(=O)N(C)Cc3ccco3)CC2)cc2ccccc21 | s | 816
O=C(CCc1nnn2c1CN(C(=O)NC1CCCC1)CC2)N1CCOCC1 | s | 615
Cc1ccc(N2CCC(NC(=O)c3cccc(C#N)c3)C2=O)cc1 (configuration not stated) | s | 813
CCc1nc(-c2ccc(S(=O)(=O)N3CCC(C(=O)N4CCc5ccccc54)CC3)cc2)no1 | s | 802
CC(C(=O)Nc1ccc(F)cc1F)C1CCN(C(=O)Nc2ccccc2)CC1 (configuration not stated) | s | 834

[A] Cc1ccc(CN2CCCC(c3nc(-c4cnccn4)no3)CCNC(=O)CC2)s1 (configuration not stated)
[B] O=C(Nc1ccccc1)C(=O)Nc1ccccc1[N+](=O)[O-]
Query: Select one. Lower RP-LC retention time: A or B State the label of the item chosen.
Response: A
(A: 603 s, B: 917 s)

====

test: gradient 5% acetonitrile 3 min, to 50% in 2 min, to 85% in 15 min, held 3 min, 100 µL/min; settings: column: Zorbax Extend-C18 2.1 x 50 mm; eluents: water / acetonitrile, 0.1% formic acid
measure: RP-LC retention time (s)

compound | measured
Cc1cc(OCC(=O)NCc2cccs2)nc(-c2ccc(Cl)cc2)n1 | 1050
COc1ccc(N2CCN(C(=O)C3CCCN(c4nccc5sc(C)cc45)C3)CC2)cc1 (stereo not given) | 676
CCCC(=O)N(C)CC1CCOCC1 | 630
CN(C)c1ncncc1N1CCC(C(=O)NCc2ccco2)CC1 | 588
NC(=O)c1cc(-c2ccc(F)cc2)n[nH]1 | 645
CCCCCC[C@@H]([C@@H](C)O)n1cnc2c(N)ncnc21 | 714
CCOC(=O)c1[nH]c(C)c(CCC(=O)N2CCC(C(=O)NCC3CCCO3)CC2)c1C (stereo not given) | 670
Cc1nn(-c2ccccc2)c(C)c1S(=O)(=O)N1CCC(C(=O)NCCc2cccs2)CC1 | 881
Cc1ccc(NC(=O)Cn2c(N)nc(C)cc2=O)cc1 | 577
N#CC1=C(SCC(=O)Nc2nccs2)NC2=C(C(=O)CCC2)C1c1ccco1 (stereo not given) | 674
CC1CCCN(C(=O)C(=O)NCc2n[nH]c(=O)c3ccccc23)C1 (stereo not given) | 644
Cn1c(=O)n(CC(=O)O)c(=O)c2c1nc1n2CCCN1c1ccc(Br)cc1 | 751
COc1ccccc1/C=C/C(=O)N1CCC(c2cc(N)on2)CC1 | 720
Cc1nc(-c2ccc(F)cc2)sc1C(=O)NC(C)C | 890
COC(=O)c1cnc2nc(C)ccc2c1Nc1ccc(Cl)c(F)c1 | 713
CN(C)S(=O)(=O)c1ccc(C(=O)Nc2nnc(-c3cc4ccccc4o3)o2)cc1 | 789
COCCOC1CCN(C(=O)c2cccs2)CC1 | 665
CC(C)NCC(O)COc1ccccc1-n1cccc1 (stereo not given) | 701
CCn1c(CN2CCN(S(C)(=O)=O)CC2)nc2cc(NC(C)=O)ccc21 | 588
OCCN(Cc1ccccc1)CC(O)COc1cccc2ccccc12 (stereo not given) | 601
CN[C@@H]1C[C@@H](c2ccc(Cl)c(Cl)c2)c2ccccc21 | 824
O=C(NCc1ccco1)C(=O)NCC1OCCN1C(=O)c1ccc(Cl)cc1 (stereo not given) | 705
O=S(=O)(c1ccccc1)N1CC(c2nnc(-c3ccncc3)o2)C2(CCOCC2)C1 (stereo not given) | 660
CC1CCC(NS(=O)(=O)c2ccc3c(c2)c(=O)n(CC(=O)N2CCCC2)c(=O)n3C)CC1 (stereo not given) | 834
CCCN(CCC)CCCNC(=O)C1CCCN(c2ncc(-c3ccc(F)cc3)cn2)C1 (stereo not given) | 749

====

assay: gradient 5% acetonitrile 3 min, to 50% in 2 min, to 85% in 15 min, held 3 min, 100 µL/min; conditions: column: Zorbax Extend-C18 2.1 x 50 mm; eluents: water / acetonitrile, 0.1% formic acid
measure: RP-LC retention time (s)

molecule | RP-LC retention time (s)
Cc1ccc(C)c(C(=O)NCc2ccc3c(c2)ncn3C)c1 | 604
Cc1nc(N)n(CC(=O)N2CCc3ccccc32)c(=O)c1C | 616
O=C(NCCc1cnc[nH]1)c1nc(Nc2ccc(F)cc2)c2ccccc2n1 | 589
O=C(Cn1cc2c(n1)CCCCC2)Nc1ccc(Br)cc1F | 1050
Cc1cc(C(=O)NCCc2c[nH]c3ccccc23)c2c(=O)n(C)c(=O)n(C)c2n1 | 742

====

experiment: gradient 5% acetonitrile 3 min, to 50% in 2 min, to 85% in 15 min, held 3 min, 100 µL/min; conditions: column: Zorbax Extend-C18 2.1 x 50 mm; eluents: water / acetonitrile, 0.1% formic acid
measure: RP-LC retention time (s)

compound | RP-LC retention time [s]
Cc1nc2n(c(=O)c1C)CCN2CC(=O)NCc1ccco1 | 596

[A] CN(C)c1ccc(-c2noc(C3CC(=O)N(c4ccc5c(c4)OCCO5)C3)n2)cc1 (stereo not drawn)
[B] COc1ccccc1NC(=O)N1CCN(c2cc(C)nc(N3CCOCC3)n2)CC1
Query: Parameter check: reported RP-LC retention time is higher for which label, A or B ? Mark your answer with the label of the selected entry.
Response: A
(A: 920 s, B: 618 s)

====

test: gradient 5% acetonitrile 3 min, to 50% in 2 min, to 85% in 15 min, held 3 min, 100 µL/min; conditions: column: Zorbax Extend-C18 2.1 x 50 mm; eluents: water / acetonitrile, 0.1% formic acid
measure: RP-LC retention time (s)

molecule | RP-LC retention time [s]
O=C(COc1ccc(F)c(F)c1)N1CCN(c2ncccc2-c2nnc(C3CC3)o2)CC1 | 822
O=C(Cc1nc(-c2ccccc2)n[nH]1)Nc1cccc(Cl)c1 | 800
O=C(c1n[nH]c(=O)c2ccccc12)N1C[C@H]2C[C@H](C1)[C@H]1CCCC(=O)N1C2 | 598
CC1CN(Cc2nc3c(c(=O)n(C)c(=O)n3C)n2CCCc2ccccc2)CC(C)O1 (stereo not given) | 732
Cc1ccc(NC(=O)CN2CCC(c3nc(-c4cccs4)no3)CC2)c(C)c1 | 718

====

assay: gradient 5% acetonitrile 3 min, to 50% in 2 min, to 85% in 15 min, held 3 min, 100 µL/min; details: column: Zorbax Extend-C18 2.1 x 50 mm; eluents: water / acetonitrile, 0.1% formic acid
measure: RP-LC retention time (s)

molecule | resultUnits | RP-LC retention time
COCCNC(=O)Cn1c(=O)n(-c2ccc(F)cc2)c2ncccc21 | s | 652
O=C(NCc1ccc(F)cc1)Nc1c(-c2ccccc2)nc2ccccn12 | s | 639
CCCn1cc(S(=O)(=O)NCc2ccccc2OC)c2cccnc21 | s | 890

====

experiment: gradient 5% acetonitrile 3 min, to 50% in 2 min, to 85% in 15 min, held 3 min, 100 µL/min; conditions: column: Zorbax Extend-C18 2.1 x 50 mm; eluents: water / acetonitrile, 0.1% formic acid
measure: RP-LC retention time (s)

compound | RP-LC retention time, s
CC(C)n1cnc(S(=O)(=O)N2CCC(C(=O)N3CCN(c4ccccn4)CC3)CC2)c1 | 571
CC1(C)Cc2cccc(OCC(=O)NCC3CCN(S(C)(=O)=O)CC3)c2O1 | 715
CCCn1c(=O)c(C)nc2cc(-c3noc(Cc4cccc(F)c4)n3)ccc21 | 1090
COc1ccc(-c2ncc3c(n2)CCN(C(=O)c2ccc(Br)cc2)C3)cc1 | 1000
CC(C)n1cnnc1CC1CCN(S(=O)(=O)Cc2ccccc2)C1 (configuration not stated) | 659
COc1ccc(C2CC(=O)N(c3ccc(C)c(F)c3)C(=O)C2)cc1OC | 867
CCc1ccc(NC(=O)Cn2c(=O)cc(-c3nc(C4CC4)no3)c3ccccc32)cc1 | 1050
Cc1ccc(C2Cn3nnc(C(=O)NC4CCCCC4)c3CO2)cc1 (configuration not stated) | 1050
CCN1CCN(CCCNC(=O)c2ccc(CS(=O)c3ccccc3Cl)o2)CC1 (configuration not stated) | 567
CN1c2cc(C(=O)NC3CCN(Cc4ccccc4)CC3)ccc2C(=O)N2CCCCC21 (configuration not stated) | 586
Cn1cccc1CN(C(=O)COc1ccc(Cl)cc1Cl)C1CC1 | 1040
COc1ccc(Br)cc1CNC(=O)Cn1cc(-c2nnc(C)o2)c2ccccc21 | 847
CCOC(=O)c1cccc(Nc2c(-c3cccc(O)c3)nc3cnccn23)c1 | 748
COC(=O)c1c(C)[nH]c(C(=O)N2CCC(CC(=O)NCCC(C)N3CCCCCC3)CC2)c1C (configuration not stated) | 604
COc1ccccc1N1CCNCC1 | 627
O=C(NCCC1CCN(C(=O)Nc2cc(F)cc(F)c2)CC1)c1cccs1 | 861
Cc1nnc(N2CCCC(C(=O)NCc3ccc(F)cc3)C2)c2nn(-c3ccc(Cl)cc3)c(C)c12 (configuration not stated) | 771
